# target.of.assay: Dual specificity protein phosphatase 6 (Homo sapiens)
# test.summary: DUSP6 inhibitors restoring Erk phosphorylation by chemical complementation, primary imaging in DUSP6-transfected HeLa (AID 609);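 further: phospho-Erk level distribution per well compared with pooled transfected vehicle control wells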
# experimental.parameters: HeLa MKP-3 transfected, phospho-Erk imaging KS statistic; at 10 µM; hits give high values; cells stimulated with TPA for 15 min
result.type: inhibition (%)
All answers are understood in %, so give the number only.

State the recorded inhibition for this entry: COC(=O)C1=C(C)N=C2SC(C)C(=O)N2C1c1cccc(F)c1 (stereo not given)
12.3

Please do the same for `Cn1c(=O)c2c3c(sc2n2c(SCc4ccccc4)nnc12)CCCC3` as well.
4.37

And for N#CC1=C2SCC(O)(c3ccccc3)N2C(=O)CC1c1ccccc1 (stereo not given) ?
-3.98

Also `CNc1oc(-c2ccc(Cl)cc2)nc1C#N` , if possible.
6.04

What about this compound? `COC(=O)CC1=NC(=O)CS1`
-7.28

What about CCCOc1ccc(/C(O)=C2/C(=O)C(=O)N(CCCn3ccnc3)C2c2cccs2)cc1 (stereo not given) ?
-18.6

Ok, now O=C(O)CN(c1ccccc1)C1SC(=O)NC1=O (stereo not given)
16.1

Then CC1(C)CC(=O)C2=C(C1)Oc1nc3ccccc3cc1C2C(C#N)C#N (stereo not given) ?
-12.3

Let us now turn to CN1C(=O)NC(NC(=O)c2ccco2)(C(F)(F)F)C1=O (stereo not given)
3.5

One more compound: `N#CC1=C(N)C(C#N)(C#N)[C@H](c2ccncc2)[C@H]2CN(C(=O)OCc3ccccc3)CC=C12`
20.3

// same read-out, input: `Cc1nc(-c2c(-c3ccc(O)cc3O)noc2C(F)(F)F)cs1`
20.2

And the next one, `COCCNc1nc2c(c(=O)n(Cc3ccc(OC)cc3)c(=O)n2C)n1C` ?
4.37

Now give it for `CC(=O)Nn1cnc2c(c1=O)C1(CCCC1)Cc1ccccc1-2` too.
-2.69

Would you kindly repeat that for `NC(N)=NC(=O)c1nc(Cl)c(N)nc1N` ?
30.1

Please answer likewise for `Cc1ccc(-n2nc3cc(Cl)c(NC(=O)c4ccco4)cc3n2)cc1`
-0.674

Here is the next compound: `CCCCOc1cccc(-c2nnc(N)s2)c1`
-13.3

Proceed to `CCCCn1c(-c2ccc(Cl)cc2)nc2c(=O)n(C)c(=O)[nH]c21`
11

Entry to check: `CCN(CC)CCOC(=O)C1(c2ccc(OC)c(OC)c2)CCCC1`
-13.3

Then this compound: Cc1ccc(N2C(=O)[C@@H]3[C@H](C2=O)C2CCCN2[C@@H]3C(=O)c2ccccc2)cc1 (stereo not given in full)
-8.59

Next record, please: `Cc1c(OCc2ccccc2)c(=O)ccn1Cc1ccccc1`
-2.91

What about this compound? `Oc1ccc(/C=C/c2cc(O)cc(O)c2)cc1`
14.6

Thanks! And `CC1(C)CNC(=O)c2sc(N3CCOCC3)nc2C1` ?
-0.159

Please do the same for C#CCSC1=C(C#N)C(c2cccs2)C(C(=O)OCC)=C(C)N1 (stereo not given) as well.
-7.28

And `Cc1ccc(S(=O)(=O)N2CCN(c3nc(C(C)C)c4c(c3C#N)CC(C)(C)OC4)CC2)cc1` ?
5.35

`CN/C(=C/[N+](=O)[O-])NCCSCc1ccc(CN(C)C)o1` ?
16.8

Another: `C=C(C)CN1CCN(c2c(CCC#N)c(C)c(C#N)c3nc4ccccc4n23)CC1`
-4.27

Again, but for `O=C1CCc2nc3ccccc3c(=O)n2N1`
11.9

Would you mind doing `CC(C)Oc1ccc(Cc2c(O)nc(NCCCN(C)C)[nH]c2=O)cc1` as well?
-2.07

For CC1CN(C2CCN(S(=O)(=O)c3ccc4ccccc4c3)CC2)CC(C)O1 (stereo not given) then?
-0.159

// next record `CCOC(=O)N1CCN(c2ncnc3c2[nH]c2ccc(OC)cc23)CC1`
0.671

Try this compound too: `c1ccc(OCc2nn3c(C4CCCCC4)nnc3s2)cc1`
-6.06

What do you have for `CCOC(=O)c1[nH]c2ccc(OC)cc2c1NC(=O)CN1CCN(c2ccccn2)CC1` ?
-14

And CC(O)Cn1ccccc1=N (stereo not given) ?
-2.29

Now try `CO[C@H]1C[C@@H]2CC[C@@H](C)[C@@](O)(O2)C(=O)C(=O)N2CCCC[C@H]2C(=O)O[C@H]([C@H](C)C[C@@H]2CC[C@@H](O)[C@H](OC)C2)CC(=O)[C@H](C)C=C(C)[C@@H](O)[C@@H](OC)C(=O)[C@H](C)C[C@H](C)C=CC=CC=C1C` .
19.2

Please do the same for `Cc1cc(NC(=O)CSc2nc(-c3cccnc3)ccc2C#N)no1` as well.
4.25

###

# target.of.assay: Voltage-gated potassium channel subunit beta-2 (Rattus norvegicus) (UniProt P62483)
# Sequence (P62483 whole entry, looked up): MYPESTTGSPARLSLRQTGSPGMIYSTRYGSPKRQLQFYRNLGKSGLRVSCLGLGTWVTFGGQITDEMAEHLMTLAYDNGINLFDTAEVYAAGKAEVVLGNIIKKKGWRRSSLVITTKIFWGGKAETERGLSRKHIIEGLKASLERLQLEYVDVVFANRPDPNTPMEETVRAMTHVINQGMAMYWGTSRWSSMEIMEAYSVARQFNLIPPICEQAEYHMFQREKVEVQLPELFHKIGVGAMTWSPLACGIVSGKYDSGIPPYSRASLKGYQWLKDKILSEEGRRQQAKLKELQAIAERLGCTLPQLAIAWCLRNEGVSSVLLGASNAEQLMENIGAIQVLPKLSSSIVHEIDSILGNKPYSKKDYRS
# test.summary: KvBeta positive modulators, primary screen, biochemical, NADPH fluorescence (AID 623);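 further: fluorescence intensity change per second fitted from 20 to 320 s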
# experimental.parameters: Recombinant KvBeta, NADPH fluorescence decrease slope, 10 min; at 10 µM; hits give low values
Consider the following molecules; for each one, report its NADPH fluorescence slope.
Output: the number by itself.

Please report the recorded NADPH fluorescence slope for `Cc1cccc(Nc2ncnc3ccccc23)c1` .
-6.7e-05

Here is the next molecule: `COc1cccc(-c2nnc3sc(-c4ccco4)nn23)c1`
1.3e-05

Next up: `CCCSc1nnc2n(-c3ccccc3OC)c(=O)c3c4c(sc3n12)CCC4`
-3.5e-05

Then what about the molecule `CCOC(=O)c1[nH]c2ccc(Br)cc2c1NC(=O)CNC` ?
-6.6e-05

Next: `C=C(Br)Cn1c(CCCC)nc2ccccc21`
-0.000115

Same question for `Nc1ncnc2nc(SCc3ccccc3)[nH]c12` please.
-0.00013

How about `Cc1nc(NCc2ccccc2)c(C(N)=O)c2c1COC(C)(C)C2` ?
-7.6e-05

Same again, this time with CC(C)NCC(O)COc1ccc(CCOCC2CC2)cc1 (configuration not stated)
-2.4e-05

Also CCOc1ccc(CCNC(=O)C(O)c2ccccc2)cc1 (configuration not stated) ?
-4.4e-05

Follow-up item: `CCOC(=O)CCc1c(C)c(C#N)c2nc3ccccc3n2c1-n1ccnc1`
-3.3e-07

Queued: `COc1ccc2c(=O)c(-c3nc(C)cs3)coc2c1`
-3.8e-05

What do you have for `Cc1nnc(SCCC#N)n(CCC#N)c1=O` ?
-3e-05

Also need O=C(O)CC(SCc1ccc(C(=O)O)o1)C(=O)O (configuration not stated) , thanks.
-7.5e-06

Moving on to the next molecule: `CC(=NC1CCCC1)c1c(C)[nH]n(-c2nc3ccccc3s2)c1=O`
-0.000261

Similarly, `COc1ccc(Nc2nc(Nc3ccc(OC)cc3)nc(-n3[nH]c(=O)c(C)c3C)n2)cc1` ?
-5.6e-05

`COc1ccc(CNc2oc(COc3ccccc3Cl)nc2C#N)cc1` , same question.
-9.3e-05

Now consider `COc1ccc(-n2ccc(=O)c3c2CCCC3=O)cc1` and answer again.
-5.1e-05

Follow-up entry: CCOc1ccc(/C(O)=C2/C(=O)C(=O)N(c3nc(C)c(C)s3)C2c2ccco2)cc1 (configuration not stated)
-5.6e-05

Try Cc1ccc(C2CC(C(F)(F)F)n3ncc(C(N)=O)c3N2)cc1 (configuration not stated) next.
-8.2e-05

Repeat with `CCOC(=O)CSc1nc(N(C)C)nc(N(C)C#N)n1`
-0.00031

// repeat for `CCOC(=O)c1[nH]c2cc3c(cc2c1NC(=O)CN1CCC2(CC1)OCCO2)OCO3` and report
5.8e-07

Cool, now CCOC(=O)c1ccc(CC2S/C(=C(\C#N)C(C)=O)NC2=O)cc1 (configuration not stated)
-4.5e-05

What do you have for `Cn1cc(NC(=O)c2cc(NC(=O)c3cc(NC=O)cn3C)cn2C)cc1C(=O)NCCC(=N)N` ?
-3.2e-05

Repeat for the following molecule: COc1cccc(/C(O)=C2/C(=O)C(=O)N(CCN(C)C)C2c2ccc(Br)cc2)c1 (configuration not stated)
7.9e-06

And for `CN1CCN(c2ncnc3c2[nH]c2ccc(F)cc23)CC1` ?
-8e-05

Please answer likewise for `CCN(CC)c1ccc2cc(-c3nnc(-c4ccncc4)o3)c(=O)oc2c1`
-0.000104

Entry C=CCOC(=O)C1=C(C)NC(SCC(=O)N(CC)CC)=C(C#N)C1c1ccco1 (configuration not stated) please
-1.8e-05

Try N#CC1=C(N)N(c2ccccc2)C(c2ccccc2)C1(C#N)C#N (configuration not stated) next.
-7.8e-07

Another molecule to check: CN(C)CC(O)COc1cccc(OCC(O)CN(C)C)c1 (configuration not stated)
-4.2e-05

// next record `Cc1cc(C)c(C#N)c(SCC(=O)N2CCN(Cc3ccccc3)CC2)n1`
-3.2e-05

Try this molecule next: OC1CN=C2Sc3ccccc3N2C1 (configuration not stated)
-1.8e-05

One more molecule: Fc1ccc(C2C3=C(Nc4ncnn42)c2ccccc2OC3c2ccncc2)cc1 (configuration not stated)
-0.000137
